target: T1, recombinant human TfR-1, His-tagged (Sino Biological 11020-H07H) (human, UniProt P02786 89-760); experiment: SPR, His-captured TfR1
T1 construct: bought; His-tagged; also called hTfR1; hTfR-1
T1 sequence (P02786 89-760 limits assumed): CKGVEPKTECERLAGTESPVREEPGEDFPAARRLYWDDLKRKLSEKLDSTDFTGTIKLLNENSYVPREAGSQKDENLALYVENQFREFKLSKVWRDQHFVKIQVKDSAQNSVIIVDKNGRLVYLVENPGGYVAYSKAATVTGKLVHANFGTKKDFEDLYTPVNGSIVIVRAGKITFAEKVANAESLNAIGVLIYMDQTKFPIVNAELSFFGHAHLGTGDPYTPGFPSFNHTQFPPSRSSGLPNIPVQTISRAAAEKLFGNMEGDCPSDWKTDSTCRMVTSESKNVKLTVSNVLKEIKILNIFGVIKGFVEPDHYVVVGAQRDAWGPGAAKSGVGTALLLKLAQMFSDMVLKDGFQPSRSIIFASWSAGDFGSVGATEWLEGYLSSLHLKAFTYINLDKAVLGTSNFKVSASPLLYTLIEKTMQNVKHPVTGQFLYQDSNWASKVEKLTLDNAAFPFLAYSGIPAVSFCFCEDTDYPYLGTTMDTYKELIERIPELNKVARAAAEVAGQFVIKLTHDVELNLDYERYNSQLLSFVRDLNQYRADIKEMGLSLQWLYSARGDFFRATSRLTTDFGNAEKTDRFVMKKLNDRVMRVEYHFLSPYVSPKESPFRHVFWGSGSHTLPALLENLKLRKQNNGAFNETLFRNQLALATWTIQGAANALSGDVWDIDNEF
Would you mind labelling by koff? At or over 0.0002 s⁻¹ is met, under is not met.

(Q) Decide: koff of Clone C variant 14 VNAR-hFc (Fc fusion, not shown: a dimerising Fc or GST) ARVDQTPQTITKETGESLTINCVLRDSNCALSSTYWYRKKSGSTNEENISKGGRYVETVNSGSKSFSLRINDLTVEDSGTYRCNVVQYPQQDRPFWCDVYGDGTAVTVN >= 0.0002 s⁻¹?
(A) not met

(Q) Try Clone C variant 8 VNAR-hFc (Fc fusion, not shown: a dimerising Fc or GST) ARVDQTPQTITKETGESLTINCVLRDSNCALSSTYWYRKKSGSTNEENISKGGRYVETVNSGSKSFSLRINDLTVEDSGTYRCNVVQWPSYNNYFWCDVYGDGTAVTVN next.
(A) met

(Q) Another: Clone C variant 11 VNAR-hFc (Fc fusion, not shown: a dimerising Fc or GST) ARVDQTPQTITKETGESLTINCVLRDSNCALSSTYWYRKKSGSTNEENISKGGRYVETVNSGSKSFSLRINDLTVEDSGTYRCNVVQYPHYNNYFWCDVYGDGTAVTVN
(A) not met

(Q) Item: Clone C variant 2 VNAR-hFc (Fc fusion, not shown: a dimerising Fc or GST) ARVDQTPQTITKETGESLTINCVLRDSNCALSSTYWYRKKSGSTNEENISKGGRYVETVNSGSKSFSLRINDLTVEDSGTYRCNVLQRPSYNNYFWCDVYGDGTAVTVN
(A) met

(Q) // same read-out, input: Clone C variant 7 VNAR-hFc (Fc fusion, not shown: a dimerising Fc or GST) ARVDQTPQTITKETGESLTINCVLRDSNCALSSTYWYRKKSGSTNEENISKGGRYVETVNSGSKSFSLRINDLTVEDSGTYRCNVVQWPSLSSPFWCDVYGDGTAVTVN
(A) not met

(Q) And what about the binder Clone C variant 3 VNAR-hFc (Fc fusion, not shown: a dimerising Fc or GST) ARVDQTPQTITKETGESLTINCVLRDSNCALSSTYWYRKKSGSTNEENISKGGRYVETVNSGSKSFSLRINDLTVEDSGTYRCNVVQHPSYNNYFWCDVYGDGTAVTVN ?
(A) not met

(Q) Consider next the binder Clone C variant 22 VNAR-hFc (Fc fusion, not shown: a dimerising Fc or GST) ARVDQTPQTITKETGESLTINCVLRDSNCALSSTYWYRKKSGSTNEENISKGGRYVETVNSGSKSFSLRINDLTVEDSGTYRCNVVQYPSNNNYFWCDVYGDGTAVTVN in the same way.
(A) met

(Q) Could you do the same for Clone C variant 12 VNAR-hFc (Fc fusion, not shown: a dimerising Fc or GST) ARVDQTPQTITKETGESLTINCVLRDSNCALSSTYWYRKKSGSTNEENISKGGRYVETVNSGSKSFSLRINDLTVEDSGTYRCNVVQYPQQDNPFWCDVYGDGTAVTVN , please?
(A) not met

(Q) Please give the result for Clone C variant 13 VNAR-hFc (Fc fusion, not shown: a dimerising Fc or GST, also called Clone C v13; Clone C var; 13) ARVDQTPQTITKETGESLTINCVLRDSNCALSSTYWYRKKSGSTNEENISKGGRYVETVNSGSKSFSLRINDLTVEDSGTYRCNVVQYPQQDNYFWCDVYGDGTAVTVN too.
(A) not met

(Q) Field entry: Clone C variant 4 VNAR-hFc (Fc fusion, not shown: a dimerising Fc or GST) ARVDQTPQTITKETGESLTINCVLRDSNCALSSTYWYRKKSGSTNEENISKGGRYVETVNSGSKSFSLRINDLTVEDSGTYRCNVVQRPSYNNYFWCDVYGDGTAVTVN
(A) met

(Q) Same for Clone C variant 20 VNAR-hFc (Fc fusion, not shown: a dimerising Fc or GST) ARVDQTPQTITKETGESLTINCVLRDSNCALSSTYWYRKKSGSTNEENISKGGRYVETVNSGSKSFSLRINDLTVEDSGTYRCNVVQYPSHNNYFWCDVYGDGTAVTVN
(A) met

(Q) What do you have for Clone C variant 1 VNAR-hFc (Fc fusion, not shown: a dimerising Fc or GST) ARVDQTPQTITKETGESLTINCVLRDSNCALSSTYWYRKKSGSTNEENISKGGRYVETVNSGSKSFSLRINDLTVEDSGTYRCNVAQRPSYNNYFWCDVYGDGTAVTVN ?
(A) met

(Q) Another binder to look at: Clone C variant 21 VNAR-hFc (Fc fusion, not shown: a dimerising Fc or GST) ARVDQTPQTITKETGESLTINCVLRDSNCALSSTYWYRKKSGSTNEENISKGGRYVETVNSGSKSFSLRINDLTVEDSGTYRCNVVQYPSIFNYFWCDVYGDGTAVTVN
(A) met

All values here come from patent US20210403591A1.
